Target: Phosphatidylinositol 5-phosphate 4-kinase type-2 gamma (Homo sapiens)
Sequence (Q8TBX8 whole entry): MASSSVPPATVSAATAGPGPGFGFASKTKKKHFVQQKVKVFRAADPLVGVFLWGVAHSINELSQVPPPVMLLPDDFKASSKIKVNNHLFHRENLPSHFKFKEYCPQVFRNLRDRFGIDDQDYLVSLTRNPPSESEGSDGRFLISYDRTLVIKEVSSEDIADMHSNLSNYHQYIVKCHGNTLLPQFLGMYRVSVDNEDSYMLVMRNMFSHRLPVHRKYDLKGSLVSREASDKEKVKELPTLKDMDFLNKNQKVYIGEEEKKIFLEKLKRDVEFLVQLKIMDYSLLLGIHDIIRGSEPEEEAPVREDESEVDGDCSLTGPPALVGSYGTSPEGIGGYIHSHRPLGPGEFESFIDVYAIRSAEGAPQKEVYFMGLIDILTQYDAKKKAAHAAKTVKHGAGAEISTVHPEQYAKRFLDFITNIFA
Test: Binding affinity to human PIP5K2C expressed in Escherichia coli BL21 cells incubated for 1 hr by active site directed binding competition assay
pKd: −log10 of the molar value.
property-label: pKd

>>> value_measured("CCc1ccc(/N=C2\\S/C(=C\\c3ccnc(Nc4ccc(C(=O)O)cn4)c3)C(=O)N2C)cc1")
6.32

----------
target: Aurora kinase B (Homo sapiens, UniProt Q96GD4); assay: Binding affinity to human Aurora B kinase expressed in Escherichia coli BL21 cells incubated for 1 hr by active site directed binding competition assay
Sequence (Q96GD4 whole entry): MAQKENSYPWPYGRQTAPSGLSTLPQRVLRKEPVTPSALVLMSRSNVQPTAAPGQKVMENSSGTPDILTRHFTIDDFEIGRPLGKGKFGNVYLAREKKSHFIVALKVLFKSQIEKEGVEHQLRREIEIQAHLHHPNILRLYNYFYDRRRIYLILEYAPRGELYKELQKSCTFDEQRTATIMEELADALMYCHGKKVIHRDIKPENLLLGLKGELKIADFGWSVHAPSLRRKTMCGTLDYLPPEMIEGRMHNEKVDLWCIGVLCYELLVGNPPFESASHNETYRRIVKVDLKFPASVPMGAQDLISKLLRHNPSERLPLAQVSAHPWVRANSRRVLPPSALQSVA
property-label: Kd (nM)

>>> value_measured("CCc1ccc(/N=C2\\S/C(=C\\c3ccnc(Nc4ccc(C(=O)O)cn4)c3)C(=O)N2C)cc1")
10.1

----------
target: Aurora kinase C (Homo sapiens, UniProt Q9UQB9); assay: Binding affinity to human Aurora C kinase expressed in Escherichia coli BL21 cells incubated for 1 hr by active site directed binding competition assay
Sequence (Q9UQB9 whole entry): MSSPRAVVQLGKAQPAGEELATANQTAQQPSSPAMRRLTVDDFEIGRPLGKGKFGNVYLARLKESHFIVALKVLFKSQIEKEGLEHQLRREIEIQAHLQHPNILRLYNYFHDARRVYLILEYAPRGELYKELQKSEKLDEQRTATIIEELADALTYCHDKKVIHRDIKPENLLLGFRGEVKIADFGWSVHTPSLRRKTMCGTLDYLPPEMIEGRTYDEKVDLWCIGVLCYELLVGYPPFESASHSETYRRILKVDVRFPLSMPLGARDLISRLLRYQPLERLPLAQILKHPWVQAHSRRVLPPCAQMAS
property-label: Kd

>>> value_measured("CCc1ccc(/N=C2\\S/C(=C\\c3ccnc(Nc4ccc(C(=O)O)cn4)c3)C(=O)N2C)cc1")
"10.8 nM"

----------
biological target: Aurora kinase A (Homo sapiens); experiment: Binding affinity to human Aurora A kinase expressed in Escherichia coli BL21 cells incubated for 1 hr by active site directed binding competition assay
property-label: Kd

>>> value_measured("CCc1ccc(/N=C2\\S/C(=C\\c3ccnc(Nc4ccc(C(=O)O)cn4)c3)C(=O)N2C)cc1")
"5 nM"

----------
target: Aurora kinase B (Homo sapiens); assay: Inhibition of Aurora B kinase in human HeLa Kyoto cells assessed as effect on distribution of phspho-histone H3 ser10 level incubated for 20 hrs
pIC50: −log10 of the molar value.
property-label: pIC50

>>> value_measured("CCc1ccc(/N=C2\\S/C(=C\\c3ccnc(Nc4ccc(C(=O)O)cn4)c3)C(=O)N2C)cc1")
"< 4.60"

----------
Molecular target: Aurora kinase A (Homo sapiens)
Sequence (O14965 whole entry): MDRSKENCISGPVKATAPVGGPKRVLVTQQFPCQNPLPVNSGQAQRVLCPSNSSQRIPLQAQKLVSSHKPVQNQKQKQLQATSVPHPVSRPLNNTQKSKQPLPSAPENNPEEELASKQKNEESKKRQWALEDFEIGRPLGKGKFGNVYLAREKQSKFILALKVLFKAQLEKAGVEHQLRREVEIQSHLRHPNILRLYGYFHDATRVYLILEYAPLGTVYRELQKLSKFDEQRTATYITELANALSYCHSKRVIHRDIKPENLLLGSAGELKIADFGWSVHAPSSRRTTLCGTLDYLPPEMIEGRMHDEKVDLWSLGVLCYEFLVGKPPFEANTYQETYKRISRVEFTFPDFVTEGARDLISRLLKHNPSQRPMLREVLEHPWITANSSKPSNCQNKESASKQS
Assay: Inhibition of His-tagged human Aurora A kinase ([…] residues) expressed in Escherichia coli BL21 (DE3) Rosetta cells using biotinylated STK2 substrate incubated for 30 mins by HTRF assay
Entries and their log10 IC50 values follow.
property-label: log10 IC50 (log10 of the value in nM)

>>> value_measured("O=c1[nH]c2cccc(O)c2n1-c1nc2ccccc2[nH]1")
4.18
>>> value_measured("CN1C(=O)/C(=C/c2ccncc2)S/C1=N\\c1ccc(C(F)(F)F)cc1")
2.57
>>> value_measured("CN1C(=O)/C(=C/c2ccncc2)S/C1=N\\c1ccccc1")
3.95
>>> value_measured("Cc1ccc2[nH]c(-n3c(=O)[nH]c4ccccc43)nc2c1")
3.89
>>> value_measured("O=c1[nH]c2c(O)cccc2n1-c1nc2ccccc2[nH]1")
4.32
>>> value_measured("CCc1ccccc1/N=C1\\S/C(=C\\c2ccncc2)C(=O)N1C")
4.72
>>> value_measured("CCc1ccc(/N=C2\\S/C(=C\\c3ccnc(Nc4ccccn4)c3)C(=O)N2C)cc1")
2.34
>>> value_measured("O=c1[nH]c2ccc(O)cc2n1-c1nc2ccccc2[nH]1")
4.08
>>> value_measured("O=C(O)c1ccc2[nH]c(=O)n(-c3nc4ccccc4[nH]3)c2c1")
3.54
>>> value_measured("CNC(=O)c1ccc2[nH]c(=O)n(-c3nc4ccccc4[nH]3)c2c1")
4.04
>>> value_measured("Cc1ccc(/N=C2\\S/C(=C\\c3ccncc3)C(=O)N2C)cc1C")
3.30
>>> value_measured("CCc1ccc(/N=C2\\SC(Cc3ccnc(N)c3)C(=O)N2C)cc1 (racemic)")
3.11
>>> value_measured("CCc1ccc(/N=C2\\S/C(=C\\c3ccnc(NC(=O)CC(=O)O)c3)C(=O)N2C)cc1")
0.78
>>> value_measured("CCc1ccc(/N=C2\\S/C(=C\\c3ccnc(Nc4ccc(CO)cc4)c3)C(=O)N2C)cc1")
2.11
>>> value_measured("CCc1ccc(/N=C2\\S/C(=C\\c3ccnc(NC(=O)CCN)c3)C(=O)N2C)cc1")
2.28
>>> value_measured("O=C(O)c1ccc2c(c1)[nH]c(=O)n2-c1nc2ccccc2[nH]1")
3.54
>>> value_measured("CCc1ccc(/N=C2\\S/C(=C\\c3ccncc3)C(=O)N2CCOC)cc1")
2.68
>>> value_measured("CN1C(=O)/C(=C/c2ccncc2)S/C1=N\\c1ccc(Br)cc1")
2.48
>>> value_measured("CCc1ccc(/N=C2\\S/C(=C\\c3ccncc3)C(=O)N2CC)cc1")
2.58
>>> value_measured("O=c1[nH]c2ccccc2n1-c1nc2cc(Br)ccc2[nH]1")
3.95
>>> value_measured("CCc1ccc(/N=C2/NC(=O)/C(=C/c3ccncc3)S2)cc1")
2.63
>>> value_measured("CCc1cccc(/N=C2\\S/C(=C\\c3ccncc3)C(=O)N2C)c1")
3.69
>>> value_measured("CCCc1ccc(/N=C2\\S/C(=C\\c3ccncc3)C(=O)N2C)cc1")
3.28
>>> value_measured("Cc1cccc2[nH]c(-n3c(=O)[nH]c4ccccc43)nc12")
4.15
>>> value_measured("CCc1ccc(/N=C2\\S/C(=C\\c3ccnc(Nc4ccc(C(=O)O)cc4)c3)C(=O)N2C)cc1")
0.79
>>> value_measured("CCc1ccc(/N=C2\\S/C(=C\\c3ccnc(NC(=O)CCC(=O)O)c3)C(=O)N2C)cc1")
0.60
>>> value_measured("CCc1ccc(/N=C2\\SC(Cc3ccnc(Nc4ccc(C(=O)O)cn4)c3)C(=O)N2C)cc1 (racemic)")
1.38
>>> value_measured("CCc1ccc(/N=C2\\S/C(=C\\c3ccnc(Nc4ccccc4)c3)C(=O)N2C)cc1")
2.78
>>> value_measured("CC(C)c1ccc(/N=C2\\S/C(=C\\c3ccncc3)C(=O)N2C)cc1")
2.89
>>> value_measured("CCc1ccc(/N=C2\\SC3(CC3c3ccnc(N)c3)C(=O)N2C)cc1 (racemic)")
4.88
>>> value_measured("CCc1ccc(/N=C2\\S/C(=C\\c3ccnc(N)c3)C(=O)N2C)cc1")
2.28
>>> value_measured("CN1C(=O)/C(=C/c2ccncc2)S/C1=N\\c1ccc(C(C)(C)C)cc1")
3.20
>>> value_measured("CCc1ccc(/N=C2\\S/C(=C\\c3ccnc(Nc4ccc(C(=O)O)cn4)c3)C(=O)N2C)cc1")
0.30
>>> value_measured("CCc1ccc(/N=C2\\S/C(=C\\c3ccnc(Nc4ccc(-c5nnn[nH]5)cc4)c3)C(=O)N2C)cc1")
1.40
>>> value_measured("CCc1ccc(/N=C2\\S/C(=C\\c3ccnc(NC(=O)CCCC(=O)O)c3)C(=O)N2C)cc1")
0.79
>>> value_measured("CCc1ccc(/N=C2\\S/C(=C\\c3ccncc3)C(=O)N2C)cc1")
2.59
>>> value_measured("O=c1[nH]c2ccc(Cl)cc2n1-c1nc2ccccc2[nH]1")
4.36
>>> value_measured("CCCCc1ccc(/N=C2\\S/C(=C\\c3ccncc3)C(=O)N2C)cc1")
3.52
